Listed next: entries and their corresponding pIC50.
# System: human CB1 receptor (Homo sapiens, UniProt P21554)
# Construct: expressed in transfected cells; host or cells: HEK293
# Sequence (P21554 whole entry): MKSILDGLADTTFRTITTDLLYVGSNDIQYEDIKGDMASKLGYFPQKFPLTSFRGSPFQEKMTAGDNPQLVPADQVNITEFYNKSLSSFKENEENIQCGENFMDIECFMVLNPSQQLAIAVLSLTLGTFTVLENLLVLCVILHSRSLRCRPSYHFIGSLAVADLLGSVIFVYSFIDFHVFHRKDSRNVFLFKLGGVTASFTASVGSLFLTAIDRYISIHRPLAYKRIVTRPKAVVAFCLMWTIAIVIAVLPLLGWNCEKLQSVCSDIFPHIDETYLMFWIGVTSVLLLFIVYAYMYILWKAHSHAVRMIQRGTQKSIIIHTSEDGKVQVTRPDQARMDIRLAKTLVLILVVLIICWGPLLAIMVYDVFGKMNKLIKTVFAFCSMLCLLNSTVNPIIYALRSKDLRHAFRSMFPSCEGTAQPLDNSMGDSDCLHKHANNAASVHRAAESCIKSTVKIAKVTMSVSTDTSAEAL
# Test description: bioSensAll β-arrestin2 plasma membrane translocation (+GRK2) BRET biosensor assay in HEK293 cells transfected with hCB1; test compound added before EC75-80 of agonist CP55,940 (100 nM)
# Type: cell-based
# Assay conditions: βArrestin2 (+GRK2) BRET biosensor, vs CP55,940 100 nM (EC75-80), read-out: CB1 wt βarr2 IC50
# pIC50: negative log10 of molar concentration; output just the value

Known pIC50 results, listed for orientation:
NC(=O)C1CN(c2nc(N3CCC[C@H]3CO)nc3c2nc(-c2ccccc2Cl)n3-c2ccc(Cl)cc2)C1 [Compound 237] | 8.71
C[C@@H](O)CNc1nc(N2CCC(C)(C(N)=O)CC2)c2nc(-c3ccccc3Cl)n(-c3ccc(Cl)cc3)c2n1 [Compound 83] | 8.20
CN(CC(C)(C)O)c1nc(N2CCC(C)(C(N)=O)CC2)c2nc(-c3ccc(C#N)nc3)n(-c3ccc(Cl)cc3)c2n1 [Compound 110] | 7.89

Ask | Sample CC(C)(O)COc1nc(N2CCC(C)(C(=O)O)CC2)c2nc(-c3ccccc3Cl)n(-c3ccc(Cl)cc3)c2n1 [Compound 220] — what was its pIC50?
Reply | 7.63

Ask | Similarly, CN(CCO)c1nc(N2CCC(C(N)=O)CC2)c2nc(-c3ccccc3Cl)n(-c3ccc(Cl)cc3)c2n1 [Compound 155] ?
Reply | 7.83

Ask | Similarly, CN(CCO)c1nc(N(C)CCO)c2nc(-c3ccccc3Cl)n(-c3ccc(Cl)cc3)c2n1 [Compound 200] ?
Reply | 7.60

Ask | Similarly, CC(CO)Oc1nc(N2CCC(C)(C(N)=O)CC2)c2nc(-c3ccccc3Cl)n(-c3ccc(Cl)cc3)c2n1 (single isomer, unassigned) [Compound 7] ?
Reply | 8.46
